Sourced from the array DNA melting data of Ke et al. (doi:10.1101/2024.01.08.574731)

# TEST PROTOCOL: melting temperature; fluorescence melt of hairpins on a sequencing array, two-state fit, raised by 9.35 °C to match UV melts
# COND: sodium 0.088 M
MEASURED QUANTITY: Tm

Solved entries:
# CHAIN, MEASURED QUANTITY, MEASURED RESULT
rows = [
    ("GATCCAAAGTGGATC ((((((...))))))", "Tm", "48.8 °C"),
    ("GATCACTAGAGTGATC ((((((....))))))", "Tm", "56.4 °C"),
    ("GCGACCGTCGC ((((...))))", "Tm", "45.5 °C"),
    ("GTCAAGGGAAACTTTGAC (((((.(....).)))))", "Tm", "40.3 °C"),
    ("GCCAGCGGAAACACCGGC (((.(.(....).).)))", "Tm", "27.6 °C"),
]

The reported value for GCATTCACGAAAGTGTGC (((..(((....)))))) in terms of Tm is 37.6 °C

The reported value for GGGAACGAAAGTTTACCC ((((((....)))..))) in terms of Tm is 34.1 °C

The reported value for GCGATCGGAAACGGTTGC ((.(.((....)).).)) in terms of Tm is 44.9 °C

The reported value for GACCATCCGAAAGGAGTC (((..(((....)))))) in terms of Tm is 26.4 °C

The reported value for GATTACGCGAAAGCGATC (((..(((....)))))) in terms of Tm is 21.4 °C
